# measurement_target: Human CB2R (Cannabinoid receptor 2) (Homo sapiens (Human))
# experiment: CB-2 in vitro cAMP assay (HTRF), inverse agonism
# condition_label: mean where tested more than once
EC50 strictly under 7 µM means True; at 7 µM or over means False.

// known answers, use as guide
compound: COCCOc1cc(NC2CCN(S(=O)(=O)C(F)(F)F)CC2)c2cc(C(c3ccc(Cl)cc3)c3ccc(Cl)cc3)ccc2n1 [Compound 530]
classification: False
//
compound: NC(=O)Cc1ccc(Nc2cc(=O)[nH]c3ccc(C(c4ccc(Cl)cc4)c4ccc(Cl)cc4)cc23)cc1 [Compound 126]
classification: False
//
compound: CC(C)(C)OC(=O)N1CC=C(c2cc(=O)[nH]c3ccc(C(c4ccc(Cl)cc4)c4ccc(Cl)cc4)cc23)CC1 [Compound 13]
classification: False
//
compound: Cn1c(=O)cc(NC2CCN(S(=O)(=O)C(F)(F)F)CC2)c2cc(C(c3ccc(Cl)cc3)c3nccs3)ccc21 (stereo not shown) [Compound 89]
classification: False

Prompt: Hello, I'm reviewing records and need to know if EC50 of O=c1cc(NC2CCN(S(=O)(=O)C(F)(F)F)CC2)c2cc(C(c3ccc(Cl)cc3)c3nccs3)ccc2[nH]1 (stereo not shown) [Compound #41] is below 7 µM. Could you check?
Response: False

Prompt: Further, for COc1cc(NC2CCN(S(=O)(=O)C(F)(F)F)CC2)c2cc(C(c3ccc(Cl)cc3)c3ccc(Cl)cc3)cc(/C=C/CO)c2n1 [Compound 549] ?
Response: True

---

# measurement_target: UniProt P21554
# experiment: CB-1 in vitro cAMP assay (HTRF), inverse agonism
# condition_label: mean where tested more than once
Where a name gives a salt, the structure may show the parent alone.
Consider the following compounds; for each one, report its pEC50.
Give bare numbers, as −log10 of the molar value.

Give one value of pEC50 per listed compound.
1. COCCCc1cc(C(c2ccc(Cl)cc2)c2ccc(Cl)cc2)cc2c(NC3CCN(S(=O)(=O)C(F)(F)F)CC3)cc(=O)[nH]c12
2. COc1ccc(C(c2ccc(Cl)cc2)c2ccc3[nH]c(=O)cc(NC4CCN(S(=O)(=O)C(F)(F)F)CC4)c3c2)cc1 (centres unmarked)
3. O=c1cc(NC2CCN(S(=O)(=O)C(F)(F)F)CC2)c2cc(C(c3ccc(Cl)cc3)c3nccs3)ccc2[nH]1 (centres unmarked)
4. CCOC(=O)CCCCOc1cc(C(c2ccc(Cl)cc2)c2ccc(Cl)cc2)cc2c(NC3CCN(S(=O)(=O)C(F)(F)F)CC3)ccnc12
5. O=c1cc(/C=C/c2ccc(C(F)(F)F)cc2)c2cc(C(c3ccc(Cl)cc3)c3ccc(Cl)s3)ccc2[nH]1 (centres unmarked)
6. O=c1cc(NC2CCN(CC(F)(F)F)CC2)c2cc(C(c3ccc(Cl)cc3)c3ccc(Cl)cc3)ccc2[nH]1
7. CCS(=O)(=O)N1CCC(Nc2cc(=O)[nH]c3ccc(C(c4ccc(Cl)cc4)c4ccc(Cl)cc4)cc23)CC1

Response:
[7.89, 8.10, 7.82, 7.09, 6.12, 8.52, 7.66]

For every listed record, write down its pEC50.
1. OC(c1ccc(Cl)cc1)(c1ccc2nccc(/C=C/c3ccccc3)c2c1)c1cscn1 (centres unmarked)
2. COc1ccc(C(c2ccc3nccc(/C=C/c4ccccc4)c3c2)c2nccs2)cc1 (centres unmarked)
3. O=c1cc(NC2CCN(S(=O)(=O)C(F)(F)F)CC2)c2cc(C(c3ccc(Cl)cc3)c3ccc(Cl)nc3)ccc2[nH]1 (centres unmarked)
4. O=c1cc(NCc2ccc(C(F)(F)F)nc2)c2cc(C(c3ccc(Cl)cc3)c3ccc(Cl)cc3)ccc2[nH]1
5. O=C(O)c1ccc(S(=O)(=O)N2CCC(Nc3cc(=O)[nH]c4ccc(C(c5ccc(Cl)cc5)c5ccc(Cl)cc5)cc34)CC2)s1 [Compound 130, trifluoroacetic acid salt]
6. O=C(O)CCC(=O)N1CCC(Nc2cc(=O)[nH]c3ccc(C(c4ccc(Cl)cc4)c4ccc(Cl)cc4)cc23)CC1

Response:
6.05
6.49
7.96
8.15
6.95
6.62

Prompt: Tell me reported pEC50 for COCCNc1ccc(C(c2ccc(Cl)cc2)c2cc(NCCOC)c3[nH]c(=O)cc(NC4CCN(S(=O)(=O)C(F)(F)F)CC4)c3c2)cc1 (centres unmarked) , tested with UniProt P21554.
Response: 7.82

---

# measurement_target: Human CB1R (Cannabinoid receptor 1) (Homo sapiens (Human), UniProt P21554)
# Sequence (P21554 whole entry): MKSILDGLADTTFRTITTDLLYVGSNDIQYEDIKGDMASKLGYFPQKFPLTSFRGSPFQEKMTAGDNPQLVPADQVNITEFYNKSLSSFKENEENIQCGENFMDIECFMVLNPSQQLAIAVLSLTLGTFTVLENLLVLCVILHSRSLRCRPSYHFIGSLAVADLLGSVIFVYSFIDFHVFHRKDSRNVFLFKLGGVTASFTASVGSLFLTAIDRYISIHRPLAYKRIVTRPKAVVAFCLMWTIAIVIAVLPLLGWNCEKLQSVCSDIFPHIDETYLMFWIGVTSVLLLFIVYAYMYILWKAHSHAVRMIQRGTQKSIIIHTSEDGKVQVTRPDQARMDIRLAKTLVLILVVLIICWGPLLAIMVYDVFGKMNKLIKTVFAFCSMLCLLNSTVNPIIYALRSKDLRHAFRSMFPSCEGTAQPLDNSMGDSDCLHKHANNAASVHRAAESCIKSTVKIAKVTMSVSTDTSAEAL
# experiment: CB-1 in vitro cAMP assay (HTRF), inverse agonism
# condition_label: mean where tested more than once
pEC50: −log10 of the molar value.
Lab note: anything with pEC50 at or over 7 counts as Criterion met; the rest go in Criterion not met.

Example entries and their recorded answers appear below.
compound: O=C(O)c1ccc(S(=O)(=O)N2CCC(Nc3cc(=O)[nH]c4ccc(C(c5ccc(Cl)cc5)c5ccc(Cl)cc5)cc34)CC2)o1
classification: Criterion not met
//
compound: O=C(O)CCCOc1ccc(Nc2cc(=O)[nH]c3ccc(C(c4ccc(Cl)cc4)c4ccc(Cl)cc4)cc23)cc1
classification: Criterion not met
//
compound: O=C(O)Cc1ccc(Nc2cc(=O)[nH]c3ccc(C(c4ccc(Cl)cc4)c4ccc(Cl)cc4)cc23)cc1
classification: Criterion not met
//
compound: COCCOc1cc(NC2CCN(S(=O)(=O)C(F)(F)F)CC2)c2cc(C(c3ccc(Cl)cc3)c3ccc(Cl)cc3)ccc2n1
classification: Criterion met
//
compound: NCCCCNc1cc(C(c2ccc(Cl)cc2)c2ccc(Cl)cc2)cc2c(NC3CCN(S(=O)(=O)C(F)(F)F)CC3)cc(=O)[nH]c12
classification: Criterion not met
//
compound: O=c1cc(NC2CCNCC2)c2cc(C(c3ccc(Cl)cc3)c3nccs3)ccc2[nH]1 (centres unmarked)
classification: Criterion not met

Prompt: # bool: pEC50 of COc1ccc(C(O)(c2ccc3nccc(/C=C/c4ccccc4)c3c2)c2nccs2)cc1 (centres unmarked) >= 7
Response: Criterion not met

Prompt: Same again, this time with O=c1cc(NC2CCN(S(=O)(=O)C(F)(F)F)CC2)c2cc(C(O)(c3ccc(F)cc3)c3ccc(Cl)cc3)ccc2[nH]1 (centres unmarked)
Response: Criterion not met

Prompt: // next record Cn1c(=O)cc(NC2CCN(S(=O)(=O)C(F)(F)F)CC2)c2cc(C(c3ccc(Cl)cc3)c3nccs3)ccc21 (centres unmarked)
Response: Criterion met

Prompt: Proceed to `COC/C=C/c1cc(C(c2ccc(Cl)cc2)c2ccc(Cl)cc2)cc2c(NC3CCN(S(=O)(=O)C(F)(F)F)CC3)cc(OC)nc12`
Response: Criterion met

Prompt: Next up: Cc1ccc(/C=C/c2cc(=O)[nH]c3ccc(C(c4ccc(Cl)cc4)c4cccs4)cc23)cc1 (centres unmarked)
Response: Criterion not met

Prompt: And what about the compound `O=c1cc(NC2CCN(c3ncccn3)CC2)c2cc(C(c3ccc(Cl)cc3)c3ccc(Cl)cc3)ccc2[nH]1` ?
Response: Criterion met

---

# experiment: Chronic DIO Mouse, second study: plasma and brain concentrations
# Type: in vivo
# condition_label: male, mouse, plasma, oral, 1 mg/kg, DIO mice, 1 mg/kg, Day 2, 2 hours post dose; read-out: Plasma concentration (Std Dev)
value_type: concentration at 2 h (ng/mL)
Answers are plain numbers, in ng/mL.

Prompt: Requested field: concentration at 2 h. Item: O=c1cc(NC2CCN(S(=O)(=O)C(F)(F)F)CC2)c2cc(C(c3ccc(Cl)cc3)c3ccc(Cl)cc3)ccc2[nH]1 [Compound #44]
Response: 310

---

# measurement_target: Human CB2R (Cannabinoid receptor 2) (Homo sapiens (Human), UniProt P34972)
# Sequence (P34972 whole entry): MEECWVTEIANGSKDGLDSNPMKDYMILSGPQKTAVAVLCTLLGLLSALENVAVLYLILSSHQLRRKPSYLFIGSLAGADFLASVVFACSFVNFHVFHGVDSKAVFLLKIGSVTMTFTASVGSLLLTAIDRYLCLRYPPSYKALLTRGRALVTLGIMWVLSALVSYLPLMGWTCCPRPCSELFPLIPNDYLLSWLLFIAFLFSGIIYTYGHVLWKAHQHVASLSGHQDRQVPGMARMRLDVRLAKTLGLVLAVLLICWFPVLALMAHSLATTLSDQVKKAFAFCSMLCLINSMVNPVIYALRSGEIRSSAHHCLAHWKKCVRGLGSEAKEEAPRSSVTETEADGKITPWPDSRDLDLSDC
# experiment: CB-2 in vitro cAMP assay (HTRF), inverse agonism
# condition_label: mean where tested more than once
# Description: CB1 and CB2 receptors are Gi-coupled GPCR. Activation of CB1 and CB2 receptors results in a decrease in cAMP production. An inverse agonist of the CB1 or CB2 receptor results in the opposite effect, an increase of cAMP production. The principle of this assay is based on HTRF® technology (Homogeneous Time-Resolved Fluorescence). […] The tracer binding is quantified by a Mab anti-cAMP labeled with Eu3+TBP-NHS Cryptate (supplied as part of the assay kit). […]
value_type: pEC50
One number for each entry, as −log10 of the molar value.

Give pEC50 for each listed item.
1. O=c1cc(NC2CCN(S(=O)(=O)C(F)(F)F)CC2)c2cc(C(c3ccc(Cl)cc3)c3ccc(Cl)cc3)cc(Br)c2[nH]1
2. O=c1cc(NC2CCN(S(=O)(=O)C(F)(F)F)CC2)c2cc(C(c3ccc(Cl)cc3)c3ccc(Cl)cc3)ccc2[nH]1
3. O=c1cc(NC2CCN(c3ncccn3)CC2)c2cc(C(c3ccc(Cl)cc3)c3ccc(Cl)cc3)ccc2[nH]1
4. CCOC(=O)CCC(=O)N1CCC(Nc2cc(=O)[nH]c3ccc(C(c4ccc(Cl)cc4)c4ccc(Cl)cc4)cc23)CC1

Response:
[7.30, 5.28, 5.39, 5.00]

Can you give me pEC50 for all of these, one by one?
1. Cc1ccc(Nc2cc(=O)[nH]c3ccc(C(c4ccc(Cl)cc4)c4ccc(Cl)cc4)cc23)cn1
2. O=c1cc(NC2CCN(S(=O)(=O)C(F)(F)F)CC2)c2cc(C(c3ccc(Cl)cc3)c3ccc(Cl)nc3)ccc2[nH]1 (centres unmarked)
3. O=c1cc(NC2CCN(S(=O)(=O)C(F)(F)F)CC2)c2cc(C(c3ccc(Cl)cc3)c3nc4ccccc4s3)ccc2[nH]1 (centres unmarked)

Response:
1. 5.17
2. 5.18
3. 5.37
